Target: MC3-R (Homo sapiens, UniProt P41968)
Sequence (P41968 whole entry): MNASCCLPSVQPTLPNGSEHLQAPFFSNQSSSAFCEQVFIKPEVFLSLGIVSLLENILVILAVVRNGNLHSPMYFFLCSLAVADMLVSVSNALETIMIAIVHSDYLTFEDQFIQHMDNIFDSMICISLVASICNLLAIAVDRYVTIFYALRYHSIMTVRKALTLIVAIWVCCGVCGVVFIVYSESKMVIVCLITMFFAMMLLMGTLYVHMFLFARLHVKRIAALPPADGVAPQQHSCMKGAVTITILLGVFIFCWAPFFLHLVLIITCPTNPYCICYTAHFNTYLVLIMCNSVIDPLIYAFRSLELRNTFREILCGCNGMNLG
Experiment: Ki determination by the method of Example 4, MC3-R
Type: binding
Set-up: expressed in transfected cells; host or cells: HEK-293
Conditions: read-out: Ki (nM) MC3-R
MEASURE: Ki (nM)

(a) N=C(N)NCCCC1C(=O)N(CCc2c[nH]c3ccccc23)CCN1C(=O)C(Cc1ccc(Cl)cc1)NC(=O)C1Cc2ccccc2CN1 (centres unmarked)
(b) N=C(N)NCCC[C@H]1C(=O)N2C(CC[C@@H]2COc2ccc3ccccc3c2)N1C(=O)[C@@H](Cc1ccc(Cl)cc1Cl)NC(=O)[C@@H]1Cc2ccccc2CN1 (some centres unmarked)
(c) CCCCCCC(=O)NC(COCc1ccccc1)C(=O)NC(Cc1ccc(Cl)cc1)C(=O)N1C(CCCCN)C(=O)N2C(COc3ccc4ccccc4c3)CCC21 (centres unmarked)
(d) N=C(N)NCCCC1C(=O)N(CCc2c[nH]c3ccccc23)CCN1C(=O)C(Cc1ccc(Cl)cc1)NC(=O)C(COCc1ccccc1)NC(=O)CCCCCCN (centres unmarked)
(e) N=C(N)NCCC[C@H]1C(=O)N2C(CC[C@@H]2COc2ccc3ccccc3c2)N1C(=O)[C@@H](Cc1ccccc1Cl)NC(=O)[C@@H]1C[C@@H](OCc2ccccc2)CN1 (some centres unmarked)
Q. From the records above, write out the order of decreasing Ki. Lab note: final answer is the ordered label list.
A. e, c, a, b, d

Source: patent US7807678B2
